# System: KRas G12C mutant (Homo sapiens, UniProt P01116, G12C)
# Construct: made in house
# Run description: Ras GTP binding domain inhibition assay (labeled-GTP competition, cell-free)
# Condition description: without SOS, read-out: KRas G12C mutant: % inh.
# From the text: This is a competitive binding assay. It involves the immobilization of a protein on solid phase, interaction with a small molecule drug candidate, and then competitive binding with a labeled native GTP or GDP ligand. […] The small GTPases proteins: KRas wild type. KRas Q61H mutant, KRas G12C mutant, KRas G12D mutants, Rac-1, and Rho-A were expressed as His-tagged proteins. In addition, the Guanosine nucleotide Exchange Factor (GEF) Sos protein (residues 556-1049) was expressed as a His-tagged protein. […]
Outcome measure: inhibition at 20 µM

>>> reported_measurement("Oc1nc(-c2nccn2CCOCc2ccccc2)nc2c(-c3ccccn3)csc12")
"1 to 25%"
>>> reported_measurement("Cc1c(-c2ccn(C(C)C)n2)sc2nc(-c3nccn3C)nc(NCc3ncc[nH]3)c12")
"26 to 50%"
>>> reported_measurement("CO[C@H]1CC[C@@H](Nc2nc(-c3nccn3C)nc3sc(-c4cc[nH]n4)c(-c4ccccc4)c23)C1 (racemic)")
"1 to 25%"
>>> reported_measurement("CO[C@H]1CC[C@@H](Nc2nc(-c3nccn3C)nc3sc(-c4ccn(C(C)C)n4)c(C)c23)CC1")
"26 to 50%"
>>> reported_measurement("COC1CCCN(c2nc(-c3ccccn3)nc3sc(-c4ccn(C(C)C)n4)c(C)c23)C1 (racemic)")
"51 to 75%"
>>> reported_measurement("COc1cc(Nc2nc(-c3nccn3C)nc3sc(-c4ccn(C(C)C)n4)c(C)c23)ccn1")
"26 to 50%"
>>> reported_measurement("CO[C@H]1CC[C@@H](Nc2nc(C(=O)NC(C)C)nc3sccc23)C1 (racemic)")
"0%"
>>> reported_measurement("CO[C@@H]1CC[C@@H](Nc2nc(-c3nccn3C)nc3sc(-c4ccn(C(C)C)n4)c(C)c23)C1 (racemic)")
"76 to 100%"
>>> reported_measurement("CO[C@H]1C[C@@H](Nc2nc(-c3nccn3C)nc3sc(-c4cn(C)cn4)c(-c4ccccc4)c23)C1")
"76 to 100%"
>>> reported_measurement("O=C(Nc1ccccc1)c1nc(O)c2scc(-c3ccccn3)c2n1")
"1 to 25%"
>>> reported_measurement("CO[C@H]1CC[C@@H](Nc2nc(-c3nccn3C)nc3sc(-c4ccn(C(C)C)n4)c(C(F)(F)F)c23)C1 (racemic)")
"1 to 25%"
>>> reported_measurement("COCCNC(=O)c1nc(N[C@@H]2CC[C@H](OC)C2)c2ccsc2n1 (racemic)")
"0%"
>>> reported_measurement("COc1cccc(Nc2nc(-c3nccn3C)nc3sc(-c4ccn(C(C)C)n4)c(C)c23)n1.Cl [Compound 65, hydrochloride salt]")
"26 to 50%"
>>> reported_measurement("COCC1CCN(c2nc(-c3ccccn3)nc3sc(-c4ccn(C(C)C)n4)c(C)c23)C1 (racemic)")
"26 to 50%"
>>> reported_measurement("Oc1nc(-c2ccccn2)nc2c(-c3ncccc3F)csc12")
"51 to 75%"

----------
# System: Rho-A (Homo sapiens, UniProt P61586)
# Run description: Ras GTP binding domain inhibition assay (labeled-GTP competition, cell-free)
# Set-up: made in house
# Condition description: with SOS, read-out: Rho-A + SOS: % inh.
Outcome measure: inhibition at 20 µM

>>> reported_measurement("CO[C@H]1CC[C@@H](Nc2nc(-c3ccccn3)nc3sc(-c4ccn(C(C)C)n4)c(C)c23)C1 (racemic)")
"51 to 75%"
>>> reported_measurement("COCCn1ccnc1-c1nc(N[C@H]2C[C@@H](OC)C2)c2c(-c3ccccc3)c(-c3ccn(C)n3)sc2n1")
"76 to 100%"
>>> reported_measurement("CC(C)NC(=O)c1nc(O)c2scc(-c3ccccn3)c2n1")
"26 to 50%"
>>> reported_measurement("CO[C@H]1CC[C@@H](Nc2nc(C(=O)N3CCOCC3)nc3sccc23)C1 (racemic)")
"1 to 25%"
>>> reported_measurement("CO[C@H]1CC[C@@H](Nc2nc(-c3nccn3C)nc3sc(-c4cc[nH]n4)c(-c4ccccc4)c23)C1 (racemic)")
"0%"
>>> reported_measurement("CO[C@@H]1CC[C@H](Nc2nc(-c3nccn3C)nc3sc(-c4ccn(C(C)C)n4)c(-c4ccccc4)c23)C1")
"26 to 50%"

----------
# Test system: Akt phosphorylation in Panc-1 cells
# Run description: Western AKT cell-based phosphorylation assay
# Parameters: species or system human
# Condition description: at 10 μM, values in brackets < > are activation %, not inhibition
Outcome measure: % inh of AKT phosphorylation in PANC-1

>>> reported_measurement("CO[C@H]1CC[C@@H](Nc2nc(C(=O)Nc3ccccc3)nc3sccc23)C1 (racemic) [Compound 15]")
"0 (0% inhibition)"
>>> reported_measurement("COC1CCCN(c2nc(-c3nccn3C)nc3sc(-c4ccn(C(C)C)n4)c(C(F)(F)F)c23)C1 (racemic) [Compound 75]")
"0 (0% inhibition)"
>>> reported_measurement("O=C(Nc1ccccc1)c1nc(O)c2scc(-c3ccccn3)c2n1 [Compound 23]")
"0 (0% inhibition)"
>>> reported_measurement("COC1CCCN(c2nc(-c3nccn3C)nc3sc(-c4ccn(C(C)C)n4)c(-c4ccccc4)c23)C1 (racemic) [Compound 77]")
"<A>"
>>> reported_measurement("CO[C@@H]1CC[C@H]1CNc1nc(-c2nccn2C)nc2sc(-c3ccn(C(C)C)n3)c(C)c12 (racemic) [Compound 61]")
"0 (0% inhibition)"
>>> reported_measurement("CO[C@H]1CC[C@@H](Nc2nc(C(=O)N3CCCC3)nc3sccc23)C1 (racemic) [Compound 25]")
"0 (0% inhibition)"
>>> reported_measurement("COCCn1ccnc1-c1nc(N[C@@H]2CC[C@H](OC)C2)c2c(-c3ccccc3)c(-c3ccn(C)n3)sc2n1 (racemic) [Compound 6]")
"0 (0% inhibition)"
>>> reported_measurement("CO[C@H]1CN(c2nc(-c3nccn3C)nc3sc(-c4ccn(C(C)C)n4)c(C)c23)C[C@H]1OC [Compound 39]")
"<B>"
>>> reported_measurement("COCC1CCN(c2nc(-c3nccn3C)nc3sc(-c4ccn(C(C)C)n4)c(-c4ccccc4)c23)C1 (racemic) [Compound 76]")
"0 (0% inhibition)"
>>> reported_measurement("CO[C@H]1CC(Nc2nc(-c3nccn3C)nc3sc(-c4ccn(C(C)C)n4)c(C)c23)C[C@@H]1OC (racemic) [Compound 44]")
"<A>"
>>> reported_measurement("Cc1c(-c2ccn(C(C)C)n2)sc2nc(-c3nccn3C)nc(NC[C@H]3CCC(=O)N3)c12 [Compound 52]")
"0 (0% inhibition)"
>>> reported_measurement("COCCn1ccnc1-c1nc(O)c2scc(-c3ccncc3)c2n1 [Compound 94]")
"0 (0% inhibition)"
>>> reported_measurement("Cc1cnc(-c2nc(O)c3scc(-c4ccccn4)c3n2)s1 [Compound 92]")
"0 (0% inhibition)"

----------
Quick list: inhibition at 20 µM per entry.
# System: KRas wild type (Homo sapiens)
# Run description: Ras GTP binding domain inhibition assay (labeled-GTP competition, cell-free)
# Parameters: made in house
# Condition description: without SOS, read-out: KRas wild type: % inh.
Outcome measure: inhibition at 20 µM

>>> reported_measurement("COc1ccc2cnc(-c3nc(O)c4scc(-c5ccccn5)c4n3)n2c1")
"51 to 75%"
>>> reported_measurement("Cn1nccc1-c1nc(O)c2scc(-c3ccccn3)c2n1")
"0%"
>>> reported_measurement("COC1CCCN(c2nc(-c3nccn3C)nc3sc(-c4ccn(C(C)C)n4)c(C(F)(F)F)c23)C1 (racemic)")
"26 to 50%"
>>> reported_measurement("CCOCCn1ccnc1-c1nc(O)c2scc(-c3ccccn3)c2n1")
"76 to 100%"
>>> reported_measurement("CC(C)NC(=O)c1nc(O)c2scc(-c3ccccn3)c2n1")
"51 to 75%"
>>> reported_measurement("COCCn1ccnc1-c1nc(O)c2scc(-c3ccncc3)c2n1")
"51 to 75%"
>>> reported_measurement("Cc1c(-c2ccn(C(C)C)n2)sc2nc(-c3nccn3C)nc(N3CCC(COC(C)C)C3)c12 (racemic)")
"51 to 75%"

----------
# System: UniProt:P63000
# Run description: Scintillation Proximity Assay (SPA) GTP affinity
# Condition description: read-out: SPA GTP affinity for binding domain
Outcome measure: Kd (nM)

>>> reported_measurement("Nc1nc2c(ncn2[C@@H]2O[C@H](COP(=O)(O)OP(=O)(O)OP(=O)(O)O)[C@@H](O)[C@H]2O)c(=O)[nH]1")
151

----------
# System: KRas G12D mutant (Homo sapiens, UniProt P01116, G12D)
# Construct: made in house
# Run description: Ras GTP binding domain inhibition assay (labeled-GTP competition, cell-free)
# Condition description: without SOS, read-out: KRas G12D mutant: % inh.
Quick list: inhibition at 20 µM per entry.
Outcome measure: inhibition at 20 µM (%)

>>> reported_measurement("COCC1COCCN1c1nc(-c2nccn2C)nc2sc(-c3ccn(C(C)C)n3)c(C)c12 (racemic)")
0
>>> reported_measurement("CO[C@H]1CC[C@@H](Nc2nc(C(N)=O)nc3sc(-c4ccn(C(C)C)n4)cc23)C1 (racemic)")
0

These entries and their values trace back to patent US20230227466A1.
